For each of the binders below, state its ADCC cytotoxic activity (51Cr release) on NCI-N87.
Target: T1, CAPRIN-1 protein expressed on the membrane surface of human cancer cells (human, UniProt Q14444 2-709)
T1 sequence (looked up): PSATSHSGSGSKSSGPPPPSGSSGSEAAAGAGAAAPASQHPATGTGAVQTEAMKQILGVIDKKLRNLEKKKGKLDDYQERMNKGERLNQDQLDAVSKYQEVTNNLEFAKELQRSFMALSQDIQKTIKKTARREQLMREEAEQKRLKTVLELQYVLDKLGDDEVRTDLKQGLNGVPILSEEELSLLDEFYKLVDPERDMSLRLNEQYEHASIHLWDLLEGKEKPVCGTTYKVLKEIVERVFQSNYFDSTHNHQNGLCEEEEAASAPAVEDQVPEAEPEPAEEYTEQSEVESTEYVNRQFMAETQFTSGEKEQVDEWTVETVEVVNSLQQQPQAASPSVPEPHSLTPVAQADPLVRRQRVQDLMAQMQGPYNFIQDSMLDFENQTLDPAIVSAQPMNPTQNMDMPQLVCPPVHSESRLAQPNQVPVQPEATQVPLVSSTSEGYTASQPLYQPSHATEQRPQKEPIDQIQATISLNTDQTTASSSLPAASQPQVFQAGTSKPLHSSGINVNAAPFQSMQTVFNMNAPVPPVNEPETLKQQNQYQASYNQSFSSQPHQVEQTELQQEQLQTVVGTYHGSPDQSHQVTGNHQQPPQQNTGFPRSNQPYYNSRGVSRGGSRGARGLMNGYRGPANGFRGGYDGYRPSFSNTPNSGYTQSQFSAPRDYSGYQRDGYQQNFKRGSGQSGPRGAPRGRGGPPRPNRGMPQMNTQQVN
Test: cell-based or functional assay

Exam item: Which measured ADCC cytotoxic activity (51Cr release) on NCI-N87 value corresponds to humanized antibody #3 (antibody, V domains shown) VH: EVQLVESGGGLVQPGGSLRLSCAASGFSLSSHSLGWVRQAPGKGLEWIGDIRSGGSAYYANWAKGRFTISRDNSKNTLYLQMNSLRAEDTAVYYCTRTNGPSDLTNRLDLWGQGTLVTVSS VL: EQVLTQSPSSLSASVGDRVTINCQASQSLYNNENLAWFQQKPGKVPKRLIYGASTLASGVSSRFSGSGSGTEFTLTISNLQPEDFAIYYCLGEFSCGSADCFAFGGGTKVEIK ?
Marked response: ≥ 38%

Exam item: Entry humanized antibody #1 (antibody, V domains shown) VH: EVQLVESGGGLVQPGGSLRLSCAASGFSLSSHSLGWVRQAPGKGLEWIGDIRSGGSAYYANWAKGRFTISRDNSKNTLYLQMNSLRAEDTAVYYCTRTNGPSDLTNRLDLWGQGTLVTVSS VL: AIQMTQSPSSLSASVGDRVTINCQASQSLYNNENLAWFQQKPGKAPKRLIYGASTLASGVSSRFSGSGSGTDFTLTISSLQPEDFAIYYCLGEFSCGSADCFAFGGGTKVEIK : reported ADCC cytotoxic activity (51Cr release) on NCI-N87 = ?
Marked response: ≥ 34%

Exam item: Using the record for humanized antibody #5 (antibody, V domains shown) VH: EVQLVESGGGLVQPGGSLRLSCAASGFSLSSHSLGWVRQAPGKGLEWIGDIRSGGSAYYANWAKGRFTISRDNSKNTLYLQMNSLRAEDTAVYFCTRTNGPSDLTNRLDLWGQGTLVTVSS VL: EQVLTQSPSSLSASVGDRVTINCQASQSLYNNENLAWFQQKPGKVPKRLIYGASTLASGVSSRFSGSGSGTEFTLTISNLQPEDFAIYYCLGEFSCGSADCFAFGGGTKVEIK , report its ADCC cytotoxic activity (51Cr release) on NCI-N87.
Marked response: ≥ 38%
